Recorded pIC50 for the following compounds
Test system: Plasmodium falciparum
Assay explanation: Antimalarial activity in Plasmodium falciparum Indochina W2
Assay type: functional, organism-based
pIC50: −log10 of the molar value.
Experimental readout: pIC50

Compound	Value operator	Measured number
CCCNC(=O)CCC(C)[C@H]1CC[C@H]2[C@@H]3[C@H](OC(C)=O)C[C@@H]4C[C@]5(CC[C@]4(C)[C@H]3C[C@H](OC(C)=O)[C@]12C)OO[C@]1(CC[C@@]2(C)[C@H](C[C@@H](OC(C)=O)[C@@H]3[C@@H]2C[C@H](OC(C)=O)[C@]2(C)[C@@H](C(C)CCC(=O)NCCC)CC[C@@H]32)C1)OO5 (stereo not given in full)	=	7.52
COC(=O)CCC(C)[C@H]1CC[C@H]2[C@@H]3[C@H](OC(C)=O)C[C@@H]4C[C@]5(CC[C@]4(C)[C@H]3C[C@H](OC(C)=O)[C@]12C)OO[C@]1(CC[C@@]2(C)[C@H](C[C@@H](OC(C)=O)[C@@H]3[C@@H]2C[C@H](OC(C)=O)[C@]2(C)[C@@H](C(C)CCC(=O)OC)CC[C@@H]32)C1)OO5 (stereo not given in full)	<	7.02
CC(=O)O[C@H]1C[C@H]2[C@@H]([C@H](OC(C)=O)C[C@@H]3C[C@]4(CC[C@@]32C)OO[C@@]2(CC[C@@]3(C)[C@H](C[C@@H](OC(C)=O)[C@@H]5[C@@H]3C[C@H](OC(C)=O)[C@]3(C)[C@@H](C(C)CCC(N)=O)CC[C@@H]53)C2)OO4)[C@@H]2CC[C@H](C(C)CCC(N)=O)[C@@]12C (stereo not given in full)	=	7.73
CC(=O)O[C@H]1C[C@H]2[C@@H]([C@H](OC(C)=O)C[C@@H]3C[C@]4(CC[C@@]32C)OO[C@]2(CC[C@@]3(C)[C@H](C[C@@H](OC(C)=O)[C@@H]5[C@@H]3C[C@H](OC(C)=O)[C@]3(C)[C@@H](C(C)CCC(N)=O)CC[C@@H]53)C2)OO4)[C@@H]2CC[C@H](C(C)CCC(N)=O)[C@@]12C (stereo not given in full)	=	7.23
CC(=O)O[C@H]1C[C@H]2[C@@H]([C@H](OC(C)=O)C[C@@H]3C[C@]4(CC[C@@]32C)OO[C@@]2(CC[C@@]3(C)[C@H](C[C@@H](OC(C)=O)[C@@H]5[C@@H]3C[C@H](OC(C)=O)[C@]3(C)[C@@H](C(C)CCC(=O)O)CC[C@@H]53)C2)OO4)[C@@H]2CC[C@H](C(C)CCC(=O)O)[C@@]12C (stereo not given in full)	<	7.00
